Values compiled from ChEMBL document CHEMBL1201862.

system: Malme-3M; test: NCI tumour cell line growth inhibition, 48 h
Active and inactive are the calls of the source. Cut-off read from the data, not from the text of the source: active = GI50 up to about 1.1 µM and inactive = higher.
PROPERTY LABEL: GI50

> print(dat)
                                   compound          measurement
1  COc1ccc2nc3cc(Cl)ccc3c(NCCCN(Cc3cc(OC)c(OC)c(OC)c3)Cc3cc(OC)c(OC)c(OC)c3)c2c1   17.7 µM (inactive)
2  O=C1Nc2ccccc2/C1=C1\C(=O)Nc2ccccc21 [ISOINDIGO]   13.2 µM (inactive)
3  C=CCOC(=O)N1[C@H]2C#C/C=C\C#C[C@]3(O)C(=O)C[C@H](C)[C@]24O[C@]43C2=CC(=O)C=CC21OC (stereo not given in full)   43.7 µM (inactive)
4  CCC(O)c1ccc(/N=C/c2ccccc2O)cc1 (stereo not given)  > 100 µM (inactive)
5  CCOC(=O)c1ccc(/N=c2\oc3ccc(OC)cc3cc2-c2nc3ccccc3[nH]2)cc1  > 100 µM (inactive)
6  CN(CCNC(=O)c1n[nH]c2c1ccc1ccccc12)CCNC(=O)c1n[nH]c2c1ccc1ccccc12    1.9 µM (inactive)

For every item in the list below, what is its measured GI50?
1. COc1ccc(-c2cc(=O)c3cc(O)ccc3o2)c(OC)c1OC
2. Cc1[nH]nc(C(=O)N/N=C/c2ccccc2Cl)c1/N=N\N(C)C
3. CC(N)/C(N)=N/O (stereo not given)

1. 66.5 µM (inactive)
2. > 39.4 µM (inactive)
3. > 100 µM (inactive)

Hi! What's the reported GI50 for COCO[C@@H]1C[C@H]2C(=O)Nc3ccccc3C(=O)N2C1 on Malme-3M?
40.3 µM (inactive)
